System: Staphylococcus aureus
test: Antibacterial activity against methicillin-resistant Staphylococcus aureus ATCC USA 300 clinical isolate assessed as bacterial growth inhibition at 256 to 0.125 ug/ml in CAMH broth medium incubated for 16 to 20 hrs by broth microdilution method
Assay type: functional
particulars: dose 256-0.125 µg/ml, time 16-20 hrs
Square brackets hold non-standard residues; d marks the D form. Peptide text beside a SMILES is read from it. Tle = CC(C)(C)[C@H](N)C(=O)O; Orn = NCCC[C@H](N)C(=O)O
measurementLabel: MIC (mg/L)
Number only, in mg/L; omit the unit.

Give the measured MIC of CC(C)C[C@@H]1NC(=O)[C@H](CCCN)NC(=O)[C@H](C(C)C)NC(=O)[C@@H]2CCCN2C(=O)[C@@H](Cc2ccccc2)NC(=O)[C@H](CC(C)C)NC(=O)[C@H](CCCN)NC(=O)[C@H](C(C)C)NC(=O)[C@@H]2CCCN2C(=O)[C@@H](CCCNC(=N)N)NC1=O (HELM PEPTIDE1{L.[dF].P.V.[Orn].L.[dR].P.V.[Orn]}$PEPTIDE1,PEPTIDE1,1:R1-10:R2$$$V2.0) .
8

Further, for CC(C)C[C@@H]1NC(=O)[C@H](CCCN)NC(=O)[C@H](C(C)C)NC(=O)[C@@H]2CCCN2C(=O)[C@@H](Cc2ccccc2)NC(=O)[C@H](CC(C)C)NC(=O)[C@H](CCCN)NC(=O)[C@H](C(C)C)NC(=O)[C@H](Cc2c[nH]c3ccccc23)NC(=O)[C@@H](CCCNC(=N)N)NC1=O (HELM PEPTIDE1{L.[dF].P.V.[Orn].L.[dR].W.V.[Orn]}$PEPTIDE1,PEPTIDE1,1:R1-10:R2$$$V2.0) ?
5

Likewise for CC(C)(C)[C@@H]1NC(=O)[C@H](CCCN)NC(=O)[C@H](C(C)(C)C)NC(=O)[C@@H]2CCCN2C(=O)[C@@H](Cc2ccccc2)NC(=O)[C@H](C(C)(C)C)NC(=O)[C@H](CCCN)NC(=O)[C@H](C(C)(C)C)NC(=O)[C@@H]2CCCN2C(=O)[C@@H](CCCNC(=N)N)NC1=O (cyclo([Orn][Tle][dF]P[Tle][Orn][Tle][dR]P[Tle])) ?
6

----------
test: Hemolytic activity in human RBC assessed as hemolysis incubated for 1 hr by absorbance based assay
Assay type: toxicity, cell-based, Erythrocyte
particulars: human red blood cells
Peptide text beside a SMILES is read from it.
The reader will find reported HC50 at 1 h values listed item by item below.
A number alone suffices; assume µg/mL.

# compound, scaleUnit, HC50 at 1 h
data = [
    ("CC(C)C[C@@H]1NC(=O)[C@H](CCCN)NC(=O)[C@H](C(C)(C)C)NC(=O)[C@@H]2CCCN2C(=O)[C@@H](CCCNC(=N)N)NC(=O)[C@H](CC(C)C)NC(=O)[C@H](CCCN)NC(=O)[C@H](C(C)C)NC(=O)[C@@H]2CCCN2C(=O)[C@@H](Cc2ccccc2)NC1=O", "µg/mL", 50.5),
    ("CC(C)C[C@@H]1NC(=O)[C@H](CCCN)NC(=O)[C@H](C(C)C)NC(=O)[C@H](Cc2c[nH]c3ccccc23)NC(=O)[C@@H](Cc2ccccc2)NC(=O)[C@H](CC(C)C)NC(=O)[C@H](CCCN)NC(=O)[C@H](C(C)C)NC(=O)[C@H](Cc2c[nH]c3ccccc23)NC(=O)[C@@H](CCCNC(=N)N)NC1=O (HELM PEPTIDE1{L.[dF].W.V.[Orn].L.[dR].W.V.[Orn]}$PEPTIDE1,PEPTIDE1,1:R1-10:R2$$$V2.0)", "µg/mL", 19.6),
    ("CC(C)C[C@@H]1NC(=O)[C@H](CCCN)NC(=O)[C@H](C(C)C)NC(=O)[C@@H]2CCCN2C(=O)[C@@H](Cc2ccccc2)NC(=O)[C@H](CC(C)C)NC(=O)[C@H](CCCN)NC(=O)[C@H](C(C)C)NC(=O)[C@@H]2CCCN2C(=O)[C@@H](CCCNC(=N)N)NC1=O (HELM PEPTIDE1{L.[dF].P.V.[Orn].L.[dR].P.V.[Orn]}$PEPTIDE1,PEPTIDE1,1:R1-10:R2$$$V2.0)", "µg/mL", 39.2),
    ("CC(C)C[C@@H]1NC(=O)[C@H](CCCN)NC(=O)[C@H](C(C)C)NC(=O)[C@H](Cc2c[nH]c3ccccc23)NC(=O)[C@@H](Cc2c[nH]c3ccccc23)NC(=O)[C@H](CC(C)C)NC(=O)[C@H](CCCN)NC(=O)[C@H](C(C)C)NC(=O)[C@H](Cc2c[nH]c3ccccc23)NC(=O)[C@@H](Cc2ccccc2)NC1=O (HELM PEPTIDE1{L.[dF].W.V.[Orn].L.[dW].W.V.[Orn]}$PEPTIDE1,PEPTIDE1,1:R1-10:R2$$$V2.0)", "µg/mL", 37.2),
    ("CC(C)C[C@@H]1NC(=O)[C@H](CCCN)NC(=O)[C@H](C(C)C)NC(=O)[C@@H]2CCCN2C(=O)[C@@H](CCCNC(=N)N)NC(=O)[C@H](CC(C)C)NC(=O)[C@H](CCCN)NC(=O)[C@H](C(C)C)NC(=O)[C@H](Cc2c[nH]c3ccccc23)NC(=O)[C@@H](Cc2ccccc2)NC1=O (HELM PEPTIDE1{L.[dF].W.V.[Orn].L.[dR].P.V.[Orn]}$PEPTIDE1,PEPTIDE1,1:R1-10:R2$$$V2.0)", "µg/mL", 31.9),
]

Could you now look at the following compound, please?
Requested read-out: HC50 at 1 h. Entry: CC(C)C[C@@H]1NC(=O)[C@H](CCCN)NC(=O)[C@H](C(C)C)NC(=O)[C@@H]2CCCN2C(=O)[C@@H](Cc2ccccc2)NC(=O)[C@H](CC(C)C)NC(=O)[C@H](CCCN)NC(=O)[C@H](C(C)C)NC(=O)[C@H](Cc2c[nH]c3ccccc23)NC(=O)[C@@H](Cc2ccccc2)NC1=O (HELM PEPTIDE1{L.[dF].P.V.[Orn].L.[dF].W.V.[Orn]}$PEPTIDE1,PEPTIDE1,1:R1-10:R2$$$V2.0)
9.04

----------
test: Retention time of the compound by RP-HPLC analysis
Type: physicochemical
Peptide text beside a SMILES is read from it.
measurementLabel: Retention_time
# do not omit the unit; it follows the number

Please report the recorded Retention_time for CC(C)C[C@@H]1NC(=O)[C@H](CCCN)NC(=O)[C@H](C(C)C)NC(=O)[C@H](Cc2c[nH]c3ccccc23)NC(=O)[C@@H](Cc2c[nH]c3ccccc23)NC(=O)[C@H](CC(C)C)NC(=O)[C@H](CCCN)NC(=O)[C@H](C(C)C)NC(=O)[C@H](Cc2c[nH]c3ccccc23)NC(=O)[C@@H](Cc2ccccc2)NC1=O (HELM PEPTIDE1{L.[dF].W.V.[Orn].L.[dW].W.V.[Orn]}$PEPTIDE1,PEPTIDE1,1:R1-10:R2$$$V2.0) .
18.68 min

----------
IC50 at 24 h for assorted compounds
test: Nephrotoxicity against HEK293 cells assessed as cell viability incubated for 24 hrs by MTT assay
Assay type: toxicity, cell-based
particulars: human
Square brackets hold non-standard residues; d marks the D form. Peptide text beside a SMILES is read from it. Tle = CC(C)(C)[C@H](N)C(=O)O; Orn = NCCC[C@H](N)C(=O)O
Response body: numeric value in µg/mL, unit text excluded.

# compound, scaleUnit, IC50 at 24 h
records = [
    ("CC(C)(C)[C@@H]1NC(=O)[C@H](CCCN)NC(=O)[C@H](C(C)(C)C)NC(=O)[C@@H]2CCCN2C(=O)[C@@H](Cc2ccccc2)NC(=O)[C@H](C(C)(C)C)NC(=O)[C@H](CCCN)NC(=O)[C@H](C(C)(C)C)NC(=O)[C@@H]2CCCN2C(=O)[C@@H](Cc2ccccc2)NC1=O (cyclo([Orn][Tle][dF]P[Tle][Orn][Tle][dF]P[Tle]))", "µg/mL", 5.31),
]

IC50 at 24 h for CC(C)C[C@@H]1NC(=O)[C@H](CCCN)NC(=O)[C@H](C(C)C)NC(=O)[C@@H]2CCCN2C(=O)[C@@H](Cc2ccccc2)NC(=O)[C@H](CC(C)C)NC(=O)[C@H](CCCN)NC(=O)[C@H](C(C)C)NC(=O)[C@@H]2CCCN2C(=O)[C@@H](Cc2ccccc2)NC1=O [GRAMICIDIN S] (HELM PEPTIDE1{L.[dF].P.V.[Orn].L.[dF].P.V.[Orn]}$PEPTIDE1,PEPTIDE1,1:R1-10:R2$$$V2.0) ?
6.45

----------
test: Hemolytic activity in human RBC assessed as hemolysis incubated for 1 hr by absorbance based assay
Format: toxicity, cell-based, Erythrocyte
particulars: human red blood cells
Square brackets hold non-standard residues; d marks the D form. Peptide text beside a SMILES is read from it. Tle = CC(C)(C)[C@H](N)C(=O)O; Orn = NCCC[C@H](N)C(=O)O
measurementLabel: HC50 at 1 h (µg/mL)
Give the value, in units of µg/mL, as a plain number.

See these solved cases before continuing.
# compound, testResult
measured = [
    ("CC(C)C[C@@H]1NC(=O)[C@H](CCCN)NC(=O)[C@H](C(C)C)NC(=O)[C@H](Cc2c[nH]c3ccccc23)NC(=O)[C@@H](Cc2c[nH]c3ccccc23)NC(=O)[C@H](CC(C)C)NC(=O)[C@H](CCCN)NC(=O)[C@H](C(C)C)NC(=O)[C@H](Cc2c[nH]c3ccccc23)NC(=O)[C@@H](Cc2c[nH]c3ccccc23)NC1=O", 55.6),
    ("CC(C)C[C@@H]1NC(=O)[C@H](CCCN)NC(=O)[C@H](C(C)(C)C)NC(=O)[C@@H]2CCCN2C(=O)[C@@H](Cc2ccccc2)NC(=O)[C@H](CC(C)C)NC(=O)[C@H](CCCN)NC(=O)[C@H](C(C)C)NC(=O)[C@@H]2CCCN2C(=O)[C@@H](Cc2ccccc2)NC1=O (HELM PEPTIDE1{L.[dF].P.[CC(C)(C)[C@H](N[*:1])C(=O)[*:2]].[Orn].L.[dF].P.V.[Orn]}$PEPTIDE1,PEPTIDE1,1:R1-10:R2$$$V2.0)", 7.49),
    ("CC(C)C[C@@H]1NC(=O)[C@H](CCCN)NC(=O)[C@H](C(C)(C)C)NC(=O)[C@@H]2CCCN2C(=O)[C@@H](Cc2ccccc2)NC(=O)[C@H](CC(C)C)NC(=O)[C@H](CCCN)NC(=O)[C@H](C(C)(C)C)NC(=O)[C@@H]2CCCN2C(=O)[C@@H](Cc2ccccc2)NC1=O (HELM PEPTIDE1{L.[dF].P.[CC(C)(C)[C@H](N[*:1])C(=O)[*:2]].[Orn].L.[dF].P.[CC(C)(C)[C@H](N[*:1])C(=O)[*:2]].[Orn]}$PEPTIDE1,PEPTIDE1,1:R1-10:R2$$$V2.0)", 6.26),
]

Look at this compound and give its reported HC50 at 1 h. CC(C)(C)[C@@H]1NC(=O)[C@H](CCCN)NC(=O)[C@H](C(C)(C)C)NC(=O)[C@@H]2CCCN2C(=O)[C@@H](Cc2ccccc2)NC(=O)[C@H](C(C)(C)C)NC(=O)[C@H](CCCN)NC(=O)[C@H](C(C)(C)C)NC(=O)[C@@H]2CCCN2C(=O)[C@@H](CCCNC(=N)N)NC1=O (cyclo([Orn][Tle][dF]P[Tle][Orn][Tle][dR]P[Tle]))
84.1

Likewise for CC(C)C[C@@H]1NC(=O)[C@H](CCCN)NC(=O)[C@H](C(C)C)NC(=O)[C@@H]2CCCN2C(=O)[C@@H](Cc2ccccc2)NC(=O)[C@H](CC(C)C)NC(=O)[C@H](CCCN)NC(=O)[C@H](C(C)C)NC(=O)[C@H](Cc2c[nH]c3ccccc23)NC(=O)[C@@H](Cc2c[nH]c3ccccc23)NC1=O (HELM PEPTIDE1{L.[dF].P.V.[Orn].L.[dW].W.V.[Orn]}$PEPTIDE1,PEPTIDE1,1:R1-10:R2$$$V2.0) ?
5.85
